Kindly state Km for each of the entries shown.
# Substrate: Cc1cc2nc3c(=O)[nH]c(=O)nc-3n(C[C@H](O)[C@H](O)[C@H](O)COP(=O)(O)OP(=O)(O)OC[C@H]3O[C@@H](n4cnc5c(N)ncnc54)[C@H](O)[C@@H]3O)c2cc1C
# assay-explanation: purified protein
# Format: biochemical, Homo sapiens
# test-context: co-substrate NADPH
Answers are plain numbers, in µM.

# annotated cases, reported Km shown
protein="human BLVRB (biliverdin reductase B) (Homo sapiens; T164S) (protein, full length, 206 residues; codon-optimised, pET21b (T164S in pJ401k); N-terminal 6xHis tag removed with thrombin) MAVKKIAIFGATGQTGLTTLAQAVQAGYEVTVLVRDSSRLPSEGPRPAHVVVGDVLQAADVDKTVAGQDAVIVLLGTRNDLSPTTVMSEGARNIVAAMKAHGVDKVVACTSAFLLWDPTKVPPRLQAVTDDHIRMHKVLRESGLKYVAVMPPHIGDQPLTGAYSVTLDGRGPSRVISKHDLGHFMLRCLTTDEYDGHSTYPSHQYQ" quantity_measured=Km readout_unit=µM readout_number=127
protein="human BLVRB (biliverdin reductase B) (Homo sapiens; T164I) (protein, full length, 206 residues; codon-optimised, pET21b (T164S in pJ401k); N-terminal 6xHis tag removed with thrombin) MAVKKIAIFGATGQTGLTTLAQAVQAGYEVTVLVRDSSRLPSEGPRPAHVVVGDVLQAADVDKTVAGQDAVIVLLGTRNDLSPTTVMSEGARNIVAAMKAHGVDKVVACTSAFLLWDPTKVPPRLQAVTDDHIRMHKVLRESGLKYVAVMPPHIGDQPLTGAYIVTLDGRGPSRVISKHDLGHFMLRCLTTDEYDGHSTYPSHQYQ" quantity_measured=Km readout_unit=µM readout_number=156
protein="human BLVRB (biliverdin reductase B) (Homo sapiens; S111A) (protein, full length, 206 residues; codon-optimised, pET21b (T164S in pJ401k); N-terminal 6xHis tag removed with thrombin) MAVKKIAIFGATGQTGLTTLAQAVQAGYEVTVLVRDSSRLPSEGPRPAHVVVGDVLQAADVDKTVAGQDAVIVLLGTRNDLSPTTVMSEGARNIVAAMKAHGVDKVVACTAAFLLWDPTKVPPRLQAVTDDHIRMHKVLRESGLKYVAVMPPHIGDQPLTGAYTVTLDGRGPSRVISKHDLGHFMLRCLTTDEYDGHSTYPSHQYQ" quantity_measured=Km readout_unit=µM readout_number=325

// Input: human BLVRB (biliverdin reductase B) (Homo sapiens; H153A) (protein, full length, 206 residues; codon-optimised, pET21b (T164S in pJ401k); N-terminal 6xHis tag removed with thrombin) MAVKKIAIFGATGQTGLTTLAQAVQAGYEVTVLVRDSSRLPSEGPRPAHVVVGDVLQAADVDKTVAGQDAVIVLLGTRNDLSPTTVMSEGARNIVAAMKAHGVDKVVACTSAFLLWDPTKVPPRLQAVTDDHIRMHKVLRESGLKYVAVMPPAIGDQPLTGAYTVTLDGRGPSRVISKHDLGHFMLRCLTTDEYDGHSTYPSHQYQ . Output its Km only.
98
